Tested on: BT-549
procedure_summary: Growth inhibition of human BT549 cells incubated for 48 hrs by sulforhodamine B assay
Format: functional, cell-based
recorded_conditions: BT-549, 48 h, read-out: pLC50 (the source's name) (converted)
readout_label: CC50

>>> val("COc1cc(Cl)cc(-c2nn(-c3cccc(NC(=O)Nc4cc(C(F)(F)F)cc(C(F)(F)F)c4)c3)cc2-c2ccncc2)c1")
"61.7 µM"
>>> val("COc1cc(Cl)cc(-c2nn(-c3cccc(NC(=O)Nc4ccc(Cl)c(Cl)c4)c3)cc2-c2ccncc2)c1")
"> 100 µM"
>>> val("O=C(Nc1cccc(-n2cc(-c3ccncc3)c(-c3cc(O)cc(Cl)c3)n2)c1)Nc1ccc(Cl)c(C(F)(F)F)c1")
"23.4 µM"

Pending compound:
Report value only: CC50, BT-549, COc1cc(Cl)cc(-c2nn(-c3cccc(NC(=O)Nc4cccc(C(F)(F)F)c4)c3)cc2-c2ccncc2)c1 > 100 µM

Recorded values, source ChEMBL document CHEMBL4308841.
